Exercise: for every item that follows, state its recorded IC50.
targetSystem: Human recombinant MAO-A (Homo sapiens)
Construct: Full-length human recombinant MAO-A and MAO-B proteins were both expressed in Baculovirus infected Sf 9 cells; FLAG (N)
Sequence (P21397 whole entry): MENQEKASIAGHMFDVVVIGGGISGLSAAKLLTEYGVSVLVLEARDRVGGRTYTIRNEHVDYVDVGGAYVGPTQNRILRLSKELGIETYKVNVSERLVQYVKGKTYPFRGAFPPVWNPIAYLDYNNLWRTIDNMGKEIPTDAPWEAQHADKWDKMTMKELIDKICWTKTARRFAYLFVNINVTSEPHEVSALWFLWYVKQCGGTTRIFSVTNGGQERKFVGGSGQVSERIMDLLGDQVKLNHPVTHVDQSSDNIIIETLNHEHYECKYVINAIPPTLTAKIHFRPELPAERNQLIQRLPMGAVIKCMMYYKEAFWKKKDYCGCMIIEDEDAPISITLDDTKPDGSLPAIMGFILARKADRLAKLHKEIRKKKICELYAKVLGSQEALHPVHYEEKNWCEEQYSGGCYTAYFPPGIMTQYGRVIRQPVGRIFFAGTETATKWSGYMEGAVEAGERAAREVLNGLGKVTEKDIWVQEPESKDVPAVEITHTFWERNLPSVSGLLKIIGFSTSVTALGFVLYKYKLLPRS
experimentNotes: Human recombinant MAO-A inhibitory activity assay (Promega MAO-Glo)
testConditions: human recombinant enzyme expressed in Sf 9 cells; substrate tyramine 40 µM; 15 min pre-incubation, 60 min reaction, room temperature; 10 concentrations, duplicate wells
Where a name gives a salt, the structure may show the parent alone.

>>> endpointresult("NC(=O)[C@@H]1CC[C@H](c2ccc(-c3ccccc3C(F)(F)F)cc2)N1 [Compound 9, hydrochloride]")
"> 10 µM"
>>> endpointresult("NC(=O)[C@H]1CC[C@@H](c2ccc(-c3ccc(C(F)(F)F)cc3)cc2)N1 [Compound 8, hydrochloride]")
"9.97 µM"
>>> endpointresult("N#Cc1ccc(-c2ccc([C@H]3CC[C@@H](C(N)=O)N3)cc2)cc1 [Compound 11, hydrochloride]")
"9.36 µM"
>>> endpointresult("NC(=O)c1ccc(-c2ccc([C@H]3CC[C@@H](C(N)=O)N3)cc2)cc1 [Compound 14, hydrochloride]")
"> 10 µM"
>>> endpointresult("NC(=O)[C@@H]1CC[C@@H](c2ccc(-c3ccc(C(F)(F)F)cc3)cc2)N1 [Compound 6, hydrochloride]")
"> 10 µM"

Below are some compounds; for each one, tell me its IC50.
1. COC(=O)[C@@H]1CC[C@H](c2ccc(-c3ccc(F)cc3)cc2)N1 [Compound 32, hydrochloride]
2. CCN1[C@@H](c2ccc(-c3ccc(C(F)(F)F)cc3)cc2)CC[C@H]1C(N)=O [Compound 30]
3. NC(=O)[C@@H]1CC[C@H](c2ccc(-c3ccc([N+](=O)[O-])cc3)cc2)N1 [Compound 12, hydrochloride]
4. CC1C[C@H](c2ccc(-c3ccc(C(F)(F)F)cc3)cc2)N[C@@H]1C(N)=O (stereo partly drawn) [Compound 25, hydrochloride]
5. N#Cc1cc([C@H]2CC[C@@H](C(N)=O)N2)ccc1-c1ccc(C(F)(F)F)cc1 [Compound 23, hydrochloride]
6. O=C(O)[C@@H]1CC[C@H](c2ccc(-c3ccc(F)cc3)cc2)N1 [Compound 31, hydrochloride]
7. CNC(=O)[C@@H]1CC[C@H](c2ccc(-c3ccc(C(F)(F)F)cc3)cc2)N1 [Compound 27, hydrochloride]
8. CN1[C@@H](c2ccc(-c3ccc(C(F)(F)F)cc3)cc2)CC[C@H]1C(N)=O [Compound 26]

Result block:
1. > 10 µM
2. > 10 µM
3. 6.32 µM
4. > 10 µM
5. 9.83 µM
6. > 10 µM
7. > 10 µM
8. > 10 µM

Below are some compounds; for each one, tell me its IC50.
1. NC(=O)[C@@H]1CC[C@H](c2ccc(-c3cccc(C(F)(F)F)c3)cc2)N1 [Compound 4, hydrochloride]
2. NC(=O)[C@@H]1CC[C@H](c2ccc(-c3ccc(OC(F)(F)F)cc3)cc2)N1 [Compound 3, hydrochloride]

Result block:
1. > 10 µM
2. > 10 µM
